Reference source: patent US20130224187A1

# STUDY_TARGET: T1, human C5a (human, UniProt P01031 678-751)
# T1 construct: also called hC5a; free human C5a
# T1 sequence: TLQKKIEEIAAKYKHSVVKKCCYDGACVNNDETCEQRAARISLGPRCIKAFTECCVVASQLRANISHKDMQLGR
# EXPERIMENT_DESCRIPTION: ELISA
VALUE_KIND: binding result

[[record]]
binder = "5an109 (antibody, V domains shown, Murine) VH: EVQLQQSGPELVKPGASVKISCKASGYTFSDYYYMNWVKKSHGKSLEWIGYIFPKTGGTNYNQRFKGKATLTVDKSSSTAYMELRSLTSEDSAVYYCASGPFAYWGQGTLVTVSA VL: EIVLTQSPAIMSASPGEKVTMTCSASSSVSYMYWYQQKPGSSPRLLIYDTSNLASGVPVRFSGSGSGTSYSLTISRMEAEDAATYYCQQWSSYPPTFGGGTKLEIKR"
result = "binds"

[[record]]
binder = "5an183 (antibody, V domains shown, Murine) VH: EVQLQQPGSVLVRPGATVKLSCKASGFTFTSSWMHWAKQRPGQGLEWIGEIHTSGHTNYNEKFKGKATLTLDTSSSTAYVDISSLTSEDSAVYYCARGGLRRGYAMDYWGQGTSVTVSS VL: DIVLTQSPASLAVSLGQRATISCRASESVDSYGNSFMHWYQQKPGQPPKLLIYRASNLESGIPARFSGSGSRTDFTLTINPVEADDVATYYCQQSNEDPLTFGAGTKLELKR"
result = "binds"

[[record]]
binder = "5an054ME (antibody, V domains shown, Murine) VH: EVQLQQSGPELVKPGASVKISCKASGYTFTDYYYMNWVKQSHGKSLEWIGYIFPNTGGTTYNQRFKGKATLTVDKSSSTAYMELRSLTSEDSAVYYCASGPFAYWGQGTLVTVSA VL: QIVLTQSPVIMSASPGEKVTMTCSASSSVSYMYWYQQKPGSSPRLLIYDTSNLASGVPVRFSGSGSGTSYSLTISRMEAEDAATYYCQQWSSYPPTFGAGTKLELKR"
result = "binds"

